Assay Protocol: total protein half-life in vivo (active degradation + dilution); higher = more stable protein
Measurement Context: E. coli NCM3722 delta-lon; growth: N-lim chemostat; doubling time 6 h
Would you kindly list total protein half-life in vivo for each of these sequences?
Output spec: scalar in h, unitless text.

What total protein half-life in vivo value was documented for this sequence, `MKLGFIGLGIMGTPMAINLARAGHQLHVTTIGPVADELLSLGAVSVETARQVTEASDIIFIMVPDTPQVEEVLFGENGCTKASLKGKTIVDMSSISPIETKRFARQVNELGGDYLDAPVSGGEIGAREGTLSIMVGGDEAVFERVKPLFELLGKNITLVGGNGDGQTCKVANQIIVALNIEAVSEALLFASKAGADPVRVRQALMGGFASSRILEVHGERMIKRTFNPGFKIALHQKDLNLALQSAKALALNLPNTATCQELFNTCAANGGSQLDHSALVQALELMANHKLA` ?
3.23

What total protein half-life in vivo value was documented for this sequence, `MPLLDSFTVDHTRMEAPAVRVAKTMNTPHGDAITVFDLRFCVPNKEVMPERGIHTLEHLFAGFMRNHLNGNGVEIIDISPMGCRTGFYMSLIGTPDEQRVADAWKAAMEDVLKVQDQNQIPELNVYQCGTYQMHSLQEAQDIARSILERDVRINSNEELALPKEKLQELHI` ?
4.38

What total protein half-life in vivo value was documented for this sequence, `MKILLAALTSSFMLVGCTPRIEVAAPKEPITINMNVKIEHEIIIKADKDVEELLETRSDLF` ?
6.88

* * *

Assay Protocol: total protein half-life in vivo (active degradation + dilution); higher = more stable protein
Measurement Context: E. coli NCM3722 delta-lon; growth: N-lim chemostat; doubling time 6 h
Endpoint Label: total protein half-life in vivo (h)
Output spec: scalar in h, unitless text.

What total protein half-life in vivo value was documented for this sequence, MIKRVLVVSMVGLSLVGCVNNDTLSGDVYTASEAKQVQNVSYGTIVNVRPVQIQGGDDSNVIGAIGGAVLGGFLGNTVGGGTGRSLATAAGAVAGGVAGQGVQSAMNKTQGVELEIRKDDGNTIMVVQKQGNTRFSPGQRVVLASNGSQVTVSPR [P0A905] ?
6.23

What total protein half-life in vivo value was documented for this sequence, `MAKLTLQEQLLKAGLVTSKKAAKVERTAKKSRVQAREARAAVEENKKAQLERDKQLSEQQKQAALAKEYKAQVKQLIEMNRITIANGDIGFNFTDGNLIKKIFVDKLTQAQLINGRLAIARLLVDNNSEGEYAIIPASVADKIAQRDASSIVLHSALSAEEQDEDDPYADFKVPDDLMW` ?
2.88

* * *

Would you kindly list total protein half-life in vivo for each of these sequences?
Assay Protocol: total protein half-life in vivo (active degradation + dilution); higher = more stable protein
Measurement Context: wild type E. coli NCM3722; growth: N-lim chemostat; doubling time 6 h
Output spec: scalar in h, unitless text.

What total protein half-life in vivo value was documented for this sequence, MANRMILNETAWFGRGAVGALTDEVKRRGYQKALIVTDKTLVQCGVVAKVTDKMDAAGLAWAIYDGVVPNPTITVVKEGLGVFQNSGADYLIAIGGGSPQDTCKAIGIISNNPEFADVRSLEGLSPTNKPSVPILAIPTTAGTAAEVTINYVITDEEKRRKFVCVDPHDIPQVAFIDADMMDGMPPALKAATGVDALTHAIEGYITRGAWALTDALHIKAIEIIAGALRGSVAGDKDAGEEMALGQYVAGMGFSNVGLGLVHGMAHPLGAFYNTPHGVANAILLPHVMRYNADFTGEKYRDIARVMGVKVEGMSLEEARNAAVEAVFALNRDVGIPPHLRDVGVRKEDIPALAQAALDDVCTGGNPREATLEDIVELYHTAW [P0A9S1] ?
4.48

What total protein half-life in vivo value was documented for this sequence, `MGAELVKWVKSHKIDAHIITFVAKMPYIDSIKLLEAGAKGCVWKTSHPAKLNRAIDSISNGYTYFDSVHMDCEKISSRYSSDNQLTNRESEILQLIADGKTNKEIANFLQLSRKTVETHRLNIMKKLDVHSGIELIKTALRMGVCTI` ?
5.22

What total protein half-life in vivo value was documented for this sequence, `MAAVNLRHIEIFHAVMTAGSLTEAAHLLHTSQPTVSRELARFEKVIGLKLFERVRGRLHPTVQGLRLFEEVQRSWYGLDRIVSAAESLREFRQGELSIACLPVFSQSFLPQLLQPFLARYPDVSLNIVPQESPLLEEWLSAQRHDLGLTETLHTPAGTERTELLSLDEVCVLPPGHPLAVKKVLTPDDFQGENYISLSRTDSYRQLLDQLFTEHQVKRRMIVETHSAASVCAMVRAGVGISVVNPLTALDYAASGLVVRRFSIAVPFTVSLIRPLHRPSSALVQAFSGHLQAGLPKLVTSLDAILSSATTA` ?
5.91

* * *

Assay Protocol: total protein half-life in vivo (active degradation + dilution); higher = more stable protein
Measurement Context: wild type E. coli NCM3722; growth: P-lim chemostat; doubling time 12 h
Would you kindly list total protein half-life in vivo for each of these sequences?
Answer as a quantity: numeral, then unit.

What total protein half-life in vivo value was documented for this sequence, MIYPDEAMLYAPVEWHDCSEGFEDIRYEKSTDGIAKITINRPQVRNAFRPLTVKEMIQALADARYDDNIGVIILTGAGDKAFCSGGDQKVRGDYGGYKDDSGVHHLNVLDFQRQIRTCPKPVVAMVAGYSIGGGHVLHMMCDLTIAADNAIFGQTGPKVGSFDGGWGASYMARIVGQKKAREIWFLCRQYDAKQALDMGLVNTVVPLADLEKETVRWCREMLQNSPMALRCLKAALNADCDGQAGLQELAGNATMLFYMTEEGQEGRNAFNQKRQPDFSKFKRNP [P0ABU0] ?
10.8 h

What total protein half-life in vivo value was documented for this sequence, `MSIKTIKYFSTIIVAVVAVLAGWWLWNYYMQSPWTRDGKIRAEQVSITPQVSGRIVELNIKDNQLVNAGDLLLTIDKTPFQIAELNAQAQLAKAQSDLAKANNEANRRRHLSQNFISAEELDTANLNVKAMQASVDAAQATLKQAQWQLAQTEIRAPVSGWVTNLTTRIGDYADTGKPLFALVDSHSFYVIGYFEETKLRHIREGAPAQITLYSDNKTLQGHVSSIGRAIYDQSVESDSSLIPDVKPNVPWVRLAQRVPVRFALDKVPGDVTLVSGTTCSIAVGQ` ?
12.5 h

* * *

Assay Protocol: total protein half-life in vivo (active degradation + dilution); higher = more stable protein
Measurement Context: E. coli NCM3722 delta-lon; growth: N-lim chemostat; doubling time 6 h
Would you kindly list total protein half-life in vivo for each of these sequences?

What total protein half-life in vivo value was documented for this sequence, `MHQVVCATTNPAKIQAILQAFHEIFGEGSCHIASVAVESGVPEQPFGSEETRAGARNRVANARRLLPEADFWVAIEAGIDGDSTFSWVVIENASQRGEARSATLPLPAVILEKVREGEALGPVMSRYTGIDEIGRKEGAIGVFTAGKLTRASVYHQAVILALSPFHNAVY` ?
4.01 h

What total protein half-life in vivo value was documented for this sequence, MSFFISDAVAATGAPAQGSPMSLILMLVVFGLIFYFMILRPQQKRTKEHKKLMDSIAKGDEVLTNGGLVGRVTKVAENGYIAIALNDTTEVVIKRDFVAAVLPKGTMKAL [P0ADZ7] ?
5.89 h

What total protein half-life in vivo value was documented for this sequence, MSNPILSWRRVRALCVKETRQIVRDPSSWLIAVVIPLLLLFIFGYGINLDSSKLRVGILLEQRSEAALDFTHTMTGSPYIDATISDNRQELIAKMQAGKIRGLVVIPVDFAEQMERANATAPIQVITDGSEPNTANFVQGYVEGIWQIWQMQRAEDNGQTFEPLIDVQTRYWFNPAAISQHFIIPGAVTIIMTVIGAILTSLVVAREWERGTMEALLSTEITRTELLLCKLIPYYFLGMLAMLLCMLVSVFILGVPYRGSLLILFFISSLFLLSTLGMGLLISTITRNQFNAAQVALNAAFLPSIMLSGFIFQIDSMPAVIRAVTYIIPARYFVSTLQSLFLAGNIPVVLVVNVLFLIASAVMFIGLTWLKTKRRLD [P0AFQ2] ?
5.56 h

* * *

Assay Protocol: total protein half-life in vivo (active degradation + dilution); higher = more stable protein
Measurement Context: wild type E. coli NCM3722; growth: C-lim chemostat; doubling time 12 h
Endpoint Label: total protein half-life in vivo

What total protein half-life in vivo value was documented for this sequence, `MGQRIPVTLGNIAPLSLRPFQPGRIALVCEGGGQRGIFTAGVLDEFMRAQFNPFDLYLGTSAGAQNLSAFICNQPGYARKVIMRYTTKREFFDPLRFVRGGNLIDLDWLVEATASQMPLQMDTAARLFDSGKSFYMCACRQDDYAPNYFLPTKQNWLDVIRASSAIPGFYRSGVSLEGINYLDGGISDAIPVKEAARQGAKTLVVIRTVPSQMYYTPQWFKRMERWLGDSSLQPLVNLVQHHETSYRDIQQFIEKPPGKLRIFEIYPPKPLHSIALGSRIPALREDYKLGRLCGRYFLATVGKLLTEKAPLTRHLVPVVTPESIVIPPAPVANDTLVAEVSDAPQANDPTFNNEDLA` ?
4.59 h

What total protein half-life in vivo value was documented for this sequence, MSNPILSWRRVRALCVKETRQIVRDPSSWLIAVVIPLLLLFIFGYGINLDSSKLRVGILLEQRSEAALDFTHTMTGSPYIDATISDNRQELIAKMQAGKIRGLVVIPVDFAEQMERANATAPIQVITDGSEPNTANFVQGYVEGIWQIWQMQRAEDNGQTFEPLIDVQTRYWFNPAAISQHFIIPGAVTIIMTVIGAILTSLVVAREWERGTMEALLSTEITRTELLLCKLIPYYFLGMLAMLLCMLVSVFILGVPYRGSLLILFFISSLFLLSTLGMGLLISTITRNQFNAAQVALNAAFLPSIMLSGFIFQIDSMPAVIRAVTYIIPARYFVSTLQSLFLAGNIPVVLVVNVLFLIASAVMFIGLTWLKTKRRLD [P0AFQ2] ?
12.8 h

What total protein half-life in vivo value was documented for this sequence, MEALGMIETRGLVALIEASDAMVKAARVKLVGVKQIGGGLCTAMVRGDVAACKAATDAGAAAAQRIGELVSVHVIPRPHGDLEEVFPIGLKGDSSNL [P0ABF4] ?
11.5 h
